# tested-system: Myc proto-oncogene protein (Homo sapiens)
# method-description: Binding affinity to His-tagged Myc (unknown origin) expressed in Escherichia coli BL21 at 10 uM by Bio-FET analysis relative to KJ-Pyr-9

smiles-code: N#Cc1ccc(-c2cc(-c3ccc(C(N)=O)cc3)cc(-c3cncs3)n2)cc1
Activity: 79%
--
smiles-code: CNC(=O)c1ccc(-c2cc(-c3ccc(C#N)cc3)nc(-c3ccco3)c2)cc1
Activity: 3.2%
--
smiles-code: N#Cc1ccc(-c2cc(-c3ccc(C(N)=O)cc3)cc(-c3cccc(F)c3)n2)cc1
Activity: 0%
--
smiles-code: COc1ccc(-c2cc(-c3ccc(C(N)=O)cc3)nc(-c3ccccc3)n2)cc1
Activity: 0%
--
smiles-code: Cn1ccnc1-c1cc(-c2ccc(C(N)=O)cc2)cc(-c2ccc(C#N)cc2)n1
Activity: 41%
--
smiles-code: NC(=O)c1ccc(-c2cc(-c3ccc(-c4nccs4)cc3)nc(-c3ccco3)c2)cc1
Activity: 97%
--
smiles-code: N#Cc1ccc(-c2cc(-c3ccc(C(N)=O)cc3)cc(-c3ccco3)n2)cc1
Activity: 106%

====

Overview of recorded clearance for various compounds
# method-description: Clearance in C57Bl6 mouse at 10 mg/kg, iv by LC-MS analysis
# Format: ADME, organism-based
# assay-context: in vivo

smiles-code: NC(=O)c1ccc(-c2cc(-c3ccc(-c4nccs4)cc3)nc(-c3ccco3)c2)cc1
clearance (mL/min/kg): 3.8
//
smiles-code: NC(=O)c1ccc(-c2cc(-c3ccc([N+](=O)[O-])cc3)nc(-c3ccco3)c2)cc1
clearance (mL/min/kg): 115

====

# tested-system: Myc proto-oncogene protein (Homo sapiens) (UniProt P01106)
# Sequence (P01106 whole entry): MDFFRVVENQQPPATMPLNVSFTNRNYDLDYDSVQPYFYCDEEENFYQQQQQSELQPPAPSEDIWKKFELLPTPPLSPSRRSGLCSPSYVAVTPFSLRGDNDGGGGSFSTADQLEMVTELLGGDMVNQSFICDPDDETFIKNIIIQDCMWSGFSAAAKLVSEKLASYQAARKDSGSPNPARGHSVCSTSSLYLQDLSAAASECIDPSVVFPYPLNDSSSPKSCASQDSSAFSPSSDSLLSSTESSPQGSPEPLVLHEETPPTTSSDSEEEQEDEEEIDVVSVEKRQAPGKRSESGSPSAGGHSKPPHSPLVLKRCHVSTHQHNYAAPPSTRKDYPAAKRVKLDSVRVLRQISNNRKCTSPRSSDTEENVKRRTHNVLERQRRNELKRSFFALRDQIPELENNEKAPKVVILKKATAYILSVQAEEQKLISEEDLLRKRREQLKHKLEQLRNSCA
# method-description: Binding affinity to His-tagged Myc (unknown origin) expressed in Escherichia coli BL21 at 10 uM by Bio-FET analysis relative to KJ-Pyr-9
Overview of recorded Activity for various compounds
reported-endpoint: Activity

smiles-code: Cn1nncc1-c1cc(-c2ccc(C(N)=O)cc2)cc(-c2ccc(C#N)cc2)n1
reported-measurement: 55%

smiles-code: CS(=O)(=O)NC(=O)c1ccc(-c2cc(-c3ccc(C#N)cc3)nc(-c3ccco3)c2)cc1
reported-measurement: 76%

smiles-code: NC(=O)c1ccc(-c2cc(-c3ccc(-c4cnco4)cc3)nc(-c3ccco3)c2)cc1
reported-measurement: 154%

smiles-code: N#Cc1ccc(-c2cc(-c3ccc(C(N)=O)cc3)cc(-c3cnco3)n2)cc1
reported-measurement: 0%

smiles-code: N#Cc1ccc(-c2cc(-c3ccc(C(=O)NN)cc3)cc(-c3ccco3)n2)cc1
reported-measurement: 0%

smiles-code: N#Cc1ccc(-c2cc(-c3ccc(C(N)=O)cc3)nc(-c3cc[n+]([O-])cc3)n2)cc1
reported-measurement: 0%

smiles-code: c1coc(-c2cc(-c3nccs3)cc(-c3ccc(-c4nccs4)cc3)n2)c1
reported-measurement: 188%

smiles-code: N#Cc1ccc(-c2cc(-c3ccc(-c4nnn[nH]4)cc3)cc(-c3ccco3)n2)cc1
reported-measurement: 92%

smiles-code: N#Cc1ccc(-c2cc(-c3ccc(C(N)=O)cc3)nc(-c3ccco3)n2)cc1
reported-measurement: 66%

====

# method-description: AUC (0 to infinity) in rat at 1 mg/kg, iv
# Format: ADME, organism-based
# Set-up: dose 1 mg/kg, time infinity, route intravenous
# assay-context: in vivo

smiles-code: NC(=O)c1ccc(-c2cc(-c3ccc([N+](=O)[O-])cc3)nc(-c3ccco3)c2)cc1
AUC(0-inf) [ng·h/mL]: 258

====

# method-description: MRT in rat at 1 mg/kg, iv
# Type: ADME, organism-based
# assay-context: in vivo

smiles-code: NC(=O)c1ccc(-c2cc(-c3ccc([N+](=O)[O-])cc3)nc(-c3ccco3)c2)cc1
MRT [h]: 1.7

====

Overview of recorded MRT for various compounds
# method-description: MRT in C57Bl6 mouse at 10 mg/kg, iv by LC-MS analysis
# Assay type: ADME, organism-based
# assay-context: in vivo

smiles-code: NC(=O)c1ccc(-c2cc(-c3ccc(-c4nccs4)cc3)nc(-c3ccco3)c2)cc1
output-unit: h
MRT: 4.3

smiles-code: NC(=O)c1ccc(-c2cc(-c3ccc([N+](=O)[O-])cc3)nc(-c3ccco3)c2)cc1
output-unit: h
MRT: 0.94

====

Overview of recorded AUC(0-inf) for various compounds
# method-description: AUC (0 to infinity) in C57Bl6 mouse at 10 mg/kg, iv by LC-MS analysis
# Format: ADME, organism-based
# Design: dose 10 mg/kg, route intravenous, time infinity
# assay-context: in vivo

smiles-code: NC(=O)c1ccc(-c2cc(-c3ccc(-c4nccs4)cc3)nc(-c3ccco3)c2)cc1
output-unit: ng·h/mL
AUC(0-inf): 44000

smiles-code: NC(=O)c1ccc(-c2cc(-c3ccc([N+](=O)[O-])cc3)nc(-c3ccco3)c2)cc1
output-unit: ng·h/mL
AUC(0-inf): 1450

====

# method-description: Volume of distribution at steady state in C57Bl6 mouse at 10 mg/kg, iv by LC-MS analysis
# Format: ADME, organism-based
# assay-context: in vivo

smiles-code: NC(=O)c1ccc(-c2cc(-c3ccc([N+](=O)[O-])cc3)nc(-c3ccco3)c2)cc1
Vd: 6.44 L/kg

====

# method-description: Solubility in pH 6 MES buffer by dynamic light scattering assay
# Format: physicochemical
Overview of recorded solubility for various compounds
reported-endpoint: solubility (µM)

smiles-code: CS(=O)(=O)NC(=O)c1ccc(-c2cc(-c3ccc(C#N)cc3)nc(-c3ccco3)c2)cc1
output-unit: µM
result-qualifier: =
reported-measurement: 32
--
smiles-code: Cn1nncc1-c1cc(-c2ccc(C(N)=O)cc2)cc(-c2ccc(C#N)cc2)n1
output-unit: µM
result-qualifier: =
reported-measurement: 32
--
smiles-code: NC(=O)c1ccc(-c2cc(-c3ccc([N+](=O)[O-])cc3)nc(-c3ccco3)c2)cc1
output-unit: µM
result-qualifier: =
reported-measurement: 8
--
smiles-code: N#Cc1ccc(-c2cc(-c3ccc(C(N)=O)cc3)nc(-c3ccco3)n2)cc1
output-unit: µM
result-qualifier: =
reported-measurement: 8
--
smiles-code: c1coc(-c2cc(-c3nccs3)cc(-c3ccc(-c4nccs4)cc3)n2)c1
output-unit: µM
result-qualifier: <
reported-measurement: 1
--
smiles-code: N#Cc1ccc(-c2cc(-c3ccc(C(N)=O)cc3)cc(-c3cnco3)n2)cc1
output-unit: µM
result-qualifier: =
reported-measurement: 250
--
smiles-code: N#Cc1ccc(-c2cc(-c3ccc(C(=O)NN)cc3)cc(-c3ccco3)n2)cc1
output-unit: µM
result-qualifier: =
reported-measurement: 500
--
smiles-code: COc1ccc(-c2cc(-c3ccc(C(N)=O)cc3)nc(-c3ccccc3)n2)cc1
output-unit: µM
result-qualifier: <
reported-measurement: 1
--
smiles-code: N#Cc1ccc(-c2cc(-c3ccc(C(N)=O)cc3)nc(-c3cc[n+]([O-])cc3)n2)cc1
output-unit: µM
result-qualifier: =
reported-measurement: 25
--
smiles-code: N#Cc1ccc(-c2cc(-c3ccc(C(N)=O)cc3)cc(-c3ccco3)n2)cc1
output-unit: µM
result-qualifier: =
reported-measurement: 10
--
smiles-code: N#Cc1ccc(-c2cc(-c3ccc(C(N)=O)cc3)cc(-c3cccc(F)c3)n2)cc1
output-unit: µM
result-qualifier: =
reported-measurement: 2
--
smiles-code: NC(=O)c1ccc(-c2cc(-c3ccc(-c4cnco4)cc3)nc(-c3ccco3)c2)cc1
output-unit: µM
result-qualifier: =
reported-measurement: 15
--
smiles-code: N#Cc1ccc(-c2cc(-c3ccc(-c4nnn[nH]4)cc3)cc(-c3ccco3)n2)cc1
output-unit: µM
result-qualifier: =
reported-measurement: 18
--
smiles-code: Cn1ccnc1-c1cc(-c2ccc(C(N)=O)cc2)cc(-c2ccc(C#N)cc2)n1
output-unit: µM
result-qualifier: =
reported-measurement: 8
--
smiles-code: N#Cc1ccc(-c2cc(-c3ccc(C(N)=O)cc3)cc(-c3cncs3)n2)cc1
output-unit: µM
result-qualifier: =
reported-measurement: 64
--
smiles-code: CNC(=O)c1ccc(-c2cc(-c3ccc(C#N)cc3)nc(-c3ccco3)c2)cc1
output-unit: µM
result-qualifier: =
reported-measurement: 25

====

# method-description: Clearance in rat at 1 mg/kg, iv
# Type: ADME, organism-based
# assay-context: in vivo
reported-endpoint: clearance (mL/min/kg)

smiles-code: NC(=O)c1ccc(-c2cc(-c3ccc([N+](=O)[O-])cc3)nc(-c3ccco3)c2)cc1
reported-measurement: 65
